Biological target: human TLR9 (Homo sapiens, UniProt Q9NR96)
Sequence (Q9NR96 26-1032): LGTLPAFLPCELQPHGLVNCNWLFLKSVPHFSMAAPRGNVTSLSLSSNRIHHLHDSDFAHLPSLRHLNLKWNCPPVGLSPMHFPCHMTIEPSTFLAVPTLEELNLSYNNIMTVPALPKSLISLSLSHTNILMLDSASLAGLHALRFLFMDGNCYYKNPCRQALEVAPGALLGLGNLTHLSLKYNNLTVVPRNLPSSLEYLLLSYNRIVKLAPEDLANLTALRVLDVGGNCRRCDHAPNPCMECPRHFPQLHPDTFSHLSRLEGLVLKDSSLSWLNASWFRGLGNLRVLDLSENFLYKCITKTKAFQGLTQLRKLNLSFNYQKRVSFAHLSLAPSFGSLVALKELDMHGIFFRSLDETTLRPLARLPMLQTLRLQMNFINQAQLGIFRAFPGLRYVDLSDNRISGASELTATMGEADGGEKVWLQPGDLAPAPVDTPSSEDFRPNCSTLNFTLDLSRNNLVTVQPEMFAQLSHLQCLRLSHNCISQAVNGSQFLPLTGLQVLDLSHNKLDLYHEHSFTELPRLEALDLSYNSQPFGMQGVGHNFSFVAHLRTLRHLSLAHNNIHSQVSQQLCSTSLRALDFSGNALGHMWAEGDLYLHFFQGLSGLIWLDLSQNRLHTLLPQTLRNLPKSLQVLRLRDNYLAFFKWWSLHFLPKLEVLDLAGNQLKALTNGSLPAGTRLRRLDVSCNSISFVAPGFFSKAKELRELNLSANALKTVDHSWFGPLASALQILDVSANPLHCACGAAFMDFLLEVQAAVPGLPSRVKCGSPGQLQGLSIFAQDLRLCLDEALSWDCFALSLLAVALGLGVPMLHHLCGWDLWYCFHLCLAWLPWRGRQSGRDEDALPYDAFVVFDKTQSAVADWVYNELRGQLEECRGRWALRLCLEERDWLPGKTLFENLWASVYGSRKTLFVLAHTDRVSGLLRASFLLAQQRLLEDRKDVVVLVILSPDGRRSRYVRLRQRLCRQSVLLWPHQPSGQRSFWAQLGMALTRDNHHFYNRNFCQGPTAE
Assay: HEK293-Blue-hTLR-9 cells assay
Details: HEK293-Blue-hTLR9 cells, ODN2006 stimulation, 20 hrs, SEAP reporter; read-out: HEK/hTLR9 IC50
parameter-measured: pIC50
Please report pIC50 as the negative decimal logarithm of the molar concentration, giving only the number.

compound | pIC50
C[C@@H]1CN(c2ccc(C#N)c3ncccc23)C[C@@H]2c3ccc(N4CCC(N)(CO)C4)cc3CN12 (stereo partly shown) | 7.19
C[C@@H]1CN(c2ccc(C#N)n3nccc23)C[C@@H]2c3ccc(N[C@H]4CNC[C@H]4F)cc3CN12 | 6.71
C[C@@H]1CN(c2ccc(C#N)c3nccnc23)C[C@@H]2c3ccc(N4CCNCC4)cc3CN12 | 7.00

# value of pIC50, human TLR9 (Homo sapiens, UniProt Q9NR96), item CO[C@@H]1CN(c2ccc3c(c2)CN2[C@H](C)CN(c4ccc(C#N)n5nccc45)C[C@H]32)CC[C@H]1N = 7.04
